# studySystem: Nuclear receptor subfamily 4 group A member 2 (Homo sapiens)
# testSummary: ATG_NURR1_TRANS: Attagene TRANS-FACTORIAL HepG2 Assay for human Nuclear Receptor Related Protein 1 (NURR1) (AID 2282985)
# experimentalContext: HepG2 Attagene TRANS reporter, mRNA readout
Inconclusive results are not listed. Activity calls are given as the source filed them. The calls were made as follows: active = hit-call score of the fitted dose curve at least 0.9, where 1 is the maximum; inconclusive = response in the unintended direction; inactive = score below 0.9.
Form entry, call: pick from TRUE (active), FALSE (inactive)

# example entries with known answers
Hi, sorry to bother you, what did the test record for `OC[C@H]1O[C@@](CO)(O[C@H]2O[C@H](CO)[C@@H](O)[C@H](O)[C@H]2O)[C@@H](O)[C@@H]1O` ?
FALSE

Call for entry `O=C(NO)C1(NS(=O)(=O)c2ccc(Oc3ccc(F)cc3)cc2)CCOCC1` :
FALSE

Call for entry `FC(F)=C(F)C(F)(F)C(F)(F)C(F)(F)C(F)(F)C(F)(F)C(F)(F)F` :
FALSE

// param item: `O=C(N[C@H](CO)[C@H](O)c1ccc([N+](=O)[O-])cc1)C(Cl)Cl` ; yields the recorded call
FALSE

Hi, sorry to bother you, what did the test record for `CCCc1ccccc1` ?
FALSE

Give the logged outcome of this assay for the following compound: `OC(Cn1cncn1)(Cn1cncn1)c1ccc(F)cc1F`
FALSE

Given `c1ccc2ncccc2c1` , state the outcome it received in this test.
FALSE

# lookup: test call for `OCCC(F)(F)C(F)(F)C(F)(F)C(F)(F)F`
FALSE

Write down the call the test reported for this compound. Item: `O=S(=O)(O)c1ccc(N=Nc2c(O)ccc3cc(S(=O)(=O)O)ccc23)cc1`
FALSE

Call for entry `Cc1ncc([C@@H](CCCCCCc2ccc3c(n2)NCCC3)CC(=O)O)cn1` :
FALSE

Next:
Recorded test call requested for `Cn1cc[nH]c1=S`
FALSE

Write down the call the test reported for this compound. Item: `C[Si](C)(C)C(F)(F)C(F)(F)C(F)(F)F`
FALSE

GET /call?item= `CCCCOC(=O)c1ccccc1` returns the recorded outcome of this test.
FALSE

Which outcome was assigned to `CCCCCCCCCCCCCCCCOS(=O)(=O)O` in this test?
FALSE

Could you check what this test reported for FC(F)C(F)(F)COCC1CO1 (stereo unspecified) ?
FALSE

Could you please tell me the result logged for CC(C)CCCCCCOC(=O)C1CCCCC1C(=O)OCCCCCCC(C)C (stereo unspecified) in this assay?
FALSE

How was `OCC(CO)(CO)CO` classified in this test?
FALSE

----------
# Read-out: Urokinase-type plasminogen activator receptor (uPAR), PLAUR (gene 5329)
# testSummary: BSK_CASM3C_uPAR: BioMAP Diversity Plus: CASM3C Assay for Urokinase-type plasminogen activator receptor (uPAR) Biomarker Activity (AID 2283054);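 also: cell-surface uPAR protein level quantified by ELISA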
# experimentalContext: primary human coronary artery smooth muscle cells; actives raise or lower the signal
Calls of active or inactive are those of the source. How the source made its calls: active means hit-call score of the fitted dose curve at least 0.9, where 1 is the maximum; inactive means score below 0.9.
experimentalEndpoint: outcome

Look over these answered cases.
Suppose we examine the molecule `c1ccc2ncccc2c1` ; what outcome value has been reported?
inactive

Consider the molecule `CCCCCCCCCCCCCCCCOS(=O)(=O)O` and give its measured outcome.
inactive

Quick one: outcome of `O=S1(=O)CCCO1` ?
inactive

outcome for `C[C@@H](Oc1ccc(CNC(=O)c2cccnc2Oc2ccc3c(c2)OCO3)c(F)c1)C(=O)O` ?
inactive

Please look up its outcome: `COc1cc(C(C)C)c2c(c1)S(=O)(=O)N(COc1cc(=O)n3cccc(OCCN4CCCCC4)c3n1)C2=O`
inactive

Each of the following entries comes with a recorded value; kindly state outcome for each.
1. C[C@]12C=CC(=O)C=C1CC[C@H]1[C@@H]3C[C@@H](O)[C@](O)(C(=O)CO)[C@@]3(C)C[C@H](O)[C@@]12F
2. CC1(C)C(=O)N(Cl)C(=O)N1Cl

1. inactive
2. inactive

Quick request: outcome for each listed item, please.
1. FC(F)(F)COC(OCC(F)(F)F)OCC(F)(F)F
2. NC(=O)N1c2ccccc2C=Cc2ccccc21
3. CCCCC(CC)C(=O)OCCOCCOCCOC(=O)C(CC)CCCC (configuration not stated)
4. OCCC(F)(F)C(F)(F)C(F)(F)C(F)(F)F
5. CNC(C)=O

1: inactive; 2: inactive; 3: inactive; 4: inactive; 5: inactive
